# System Under Test: UBA7 C599 (P41226) (Homo sapiens)
# Protocol Details: Competitive isoTOP-ABPP, cell lysates
# Format: binding
# Condition Context: 500 μm in-vitro ramos
Quantity Kind: isoTOP-ABPP ratio (reactivity profile), P41226_C599
Form rule: numeric answer, no unit written next to it.

Compound	Assay Result
O=C(CCl)N1CCC(C(O)(c2ccccc2)c2ccccc2)CC1 [compound 20]	12.2
N#C/C(=C\c1cc(C(F)(F)F)cc(C(F)(F)F)c1)C(N)=O [compound 23]	3.2
CC(C)CCOCCNC(=O)CCl [compound 27]	1.3

Consider now this further compound.
Query string: Look up and state reported isoTOP-ABPP ratio (reactivity profile), P41226_C599 for O=C(CCl)NC12CC3CC(CC(C3)C1)C2 [compound 21]
Result string: 2.5

----------
# System Under Test: cysteines in MDA-MB-231 and Ramos cells (Homo sapiens, UniProt Q00765)
# Protocol Details: Competitive isoTOP-ABPP in situ (fragment-treated cells)
# Format: cell-based
# Condition Context: 200 μM, insitu, 231
Quantity Kind: isoTOP-ABPP ratio Q00765_C18
Form rule: numeric answer, no unit written next to it.

Compound	Quantity Kind	Assay Result
O=C(CCl)NCCc1c[nH]c2ccccc12 [compound 13]	isoTOP-ABPP ratio Q00765_C18	1.2

Query string: Look up and state reported isoTOP-ABPP ratio Q00765_C18 for O=C(CCl)NC(=O)NC12CC3CC(CC(C3)C1)C2 [compound 12]
Result string: 20.0

Query string: Look up and state reported isoTOP-ABPP ratio Q00765_C18 for CC(C)CCOCCNC(=O)CCl [compound 27]
Result string: 1.1

Query string: Look up and state reported isoTOP-ABPP ratio Q00765_C18 for O=C(CCl)NC12CC3CC(CC(C3)C1)C2 [compound 21]
Result string: 0.7

Query string: Look up and state reported isoTOP-ABPP ratio Q00765_C18 for CC1CCc2ccccc2N1C(=O)CCl (stereo not drawn) [compound 45]
Result string: 20.0

Query string: Look up and state reported isoTOP-ABPP ratio Q00765_C18 for O=C(CCl)N1CCN(S(=O)(=O)c2ccccc2F)CC1 [compound 10]
Result string: 4.2

----------
# System Under Test: CYR61 C39 (O00622) (Homo sapiens, UniProt O00622)
# Protocol Details: Competitive isoTOP-ABPP, cell lysates
# Format: binding
# Condition Context: 500 μm in-vitro ramos_231
Quantity Kind: isoTOP-ABPP ratio (reactivity profile), O00622_C39
Form rule: numeric answer, no unit written next to it.

// solved cases for isoTOP-ABPP ratio (reactivity profile), O00622_C39 follow
Compound	Assay Result
N#C/C(=C\c1cc(C(F)(F)F)cc(C(F)(F)F)c1)C(N)=O	4.4
COc1ccccc1OCCNC(=O)CCl	1.0
CC(C)CCOCCNC(=O)CCl	1.0

Consider now this further compound.
Query string: Answer briefly: isoTOP-ABPP ratio (reactivity profile), O00622_C39 recorded on CYR61 C39 (O00622) (Homo sapiens, UniProt O00622) for CC(Cl)C(=O)Nc1cc(C(F)(F)F)cc(C(F)(F)F)c1 (stereo not shown)
Result string: 1.0

----------
# System Under Test: LRBA C1704 (P50851) (Homo sapiens)
# Protocol Details: Competitive isoTOP-ABPP, cell lysates
# Type: binding
# Condition Context: 500 μM, invitro, ramos
compounds and their reported isoTOP-ABPP ratio, P50851_C1704
Form rule: numeric answer, no unit written next to it.

// solved cases for isoTOP-ABPP ratio, P50851_C1704 follow
Compound	Assay Result
C=CC(=O)N(c1ccccc1)c1ccc(Br)cc1 [compound 5]	3.6
O=C(CCl)NCCc1c[nH]c2ccccc12 [compound 13]	0.8
O=C(CCl)N1CCN(S(=O)(=O)c2ccccc2F)CC1 [compound 10]	0.8

Consider now this further compound.
Query string: Look up and state reported isoTOP-ABPP ratio, P50851_C1704 for Cn1cc(S(=O)(=O)N2CCOCC2)cc1C(=O)NC(=O)CCl [compound 11]
Result string: 1.4

----------
# System Under Test: cysteines in MDA-MB-231 and Ramos cells (Homo sapiens, UniProt Q02252)
# Protocol Details: Competitive isoTOP-ABPP in situ (fragment-treated cells)
# Assay type: cell-based
# Condition Context: 200 μM, insitu, 231
Quantity Kind: isoTOP-ABPP ratio Q02252_C317

Compound	Assay Result
CC(C)CCOCCNC(=O)CCl [compound 27]	2.0
O=C(CCl)N1CCN(S(=O)(=O)c2ccccc2F)CC1 [compound 10]	1.5
O=C(CCl)NC(=O)NC12CC3CC(CC(C3)C1)C2 [compound 12]	3.2
O=C(CCl)NCCc1c[nH]c2ccccc12 [compound 13]	1.3
Cc1ccc(C=C(C#N)C(=O)NCCN2CCOCC2)cc1 [compound 41]	0.8
CC1CCc2ccccc2N1C(=O)CCl (stereo not drawn) [compound 45]	2.6
O=C(CCl)NC12CC3CC(CC(C3)C1)C2 [compound 21]	1.5
COc1ccccc1OCCNC(=O)CCl [compound 28]	1.1

Consider now this further compound.
Query string: Look up and state reported isoTOP-ABPP ratio Q02252_C317 for C=CC(=O)Nc1cc(F)c(N2CCN(C(=O)OC(C)(C)C)CC2)c(F)c1 [compound 38]
Result string: 2.4

----------
# System Under Test: cysteines in MDA-MB-231 and Ramos cells (Homo sapiens, UniProt P45984)
# Protocol Details: Competitive isoTOP-ABPP in situ (fragment-treated cells)
# Assay type: cell-based
# Condition Context: 200 μM, insitu, 231
compounds and their reported isoTOP-ABPP ratio P45984_C177
Form rule: numeric answer, no unit written next to it.

// solved cases for isoTOP-ABPP ratio P45984_C177 follow
Cc1ccc(C=C(C#N)C(=O)NCCN2CCOCC2)cc1 0.5
CC(C)CCOCCNC(=O)CCl 0.5
O=C(CCl)NC(=O)NC12CC3CC(CC(C3)C1)C2 2.1

Query string: Answer briefly: isoTOP-ABPP ratio P45984_C177 recorded on cysteines in MDA-MB-231 and Ramos cells (Homo sapiens, UniProt P45984) for O=C(CCl)N1CCN(S(=O)(=O)c2ccccc2F)CC1
Result string: 20.0

----------
# System Under Test: cysteines in MDA-MB-231 and Ramos cells (Homo sapiens)
# Protocol Details: Competitive isoTOP-ABPP in situ (fragment-treated cells)
# Format: cell-based
# Condition Context: 200 μM, insitu, 231
compounds and their reported isoTOP-ABPP ratio Q86SX6_C67
Form rule: numeric answer, no unit written next to it.

// solved cases for isoTOP-ABPP ratio Q86SX6_C67 follow
O=C(CCl)NCCc1c[nH]c2ccccc12 10.3
O=C(CCl)NC(=O)NC12CC3CC(CC(C3)C1)C2 1.6
C=CC(=O)Nc1cc(F)c(N2CCN(C(=O)OC(C)(C)C)CC2)c(F)c1 1.0

Query string: Look up and state reported isoTOP-ABPP ratio Q86SX6_C67 for CC(C)CCOCCNC(=O)CCl
Result string: 1.5

Query string: Look up and state reported isoTOP-ABPP ratio Q86SX6_C67 for O=C(CCl)N1CCN(S(=O)(=O)c2ccccc2F)CC1
Result string: 1.3

----------
# System Under Test: UBE2L3 C86 (P68036) (Homo sapiens, UniProt P68036)
# Protocol Details: Competitive isoTOP-ABPP, cell lysates
# Format: binding
# Condition Context: 500 μm, in-vitro_ramos
Quantity Kind: isoTOP-ABPP reactivity ratio, P68036_C86
Form rule: numeric answer, no unit written next to it.

Query string: Look up and state reported isoTOP-ABPP reactivity ratio, P68036_C86 for CCN(CC)c1ccc(S(N)(=O)=O)cc1NC(=O)CCl
Result string: 1.5

Query string: Look up and state reported isoTOP-ABPP reactivity ratio, P68036_C86 for C=CC(=O)N(Cc1cccnc1)c1cc(C(F)(F)F)cc(C(F)(F)F)c1
Result string: 1.3

Query string: Look up and state reported isoTOP-ABPP reactivity ratio, P68036_C86 for C=CC(=O)Nc1cc(C)c(Br)cc1C
Result string: 0.9

Query string: Look up and state reported isoTOP-ABPP reactivity ratio, P68036_C86 for CC(C)(C)c1cc(NC(=O)CCl)on1
Result string: 0.9

Query string: Look up and state reported isoTOP-ABPP reactivity ratio, P68036_C86 for Cc1ccc(C=C(C#N)C(=O)NCCN2CCOCC2)cc1
Result string: 7.9

Query string: Look up and state reported isoTOP-ABPP reactivity ratio, P68036_C86 for C=CC(=O)Nc1cc(F)c(N2CCN(C(=O)OC(C)(C)C)CC2)c(F)c1
Result string: 1.5

----------
molecules and their reported isoTOP-ABPP ratio (reactivity profile), Q15084_C190
# System Under Test: PDIA6 C190 (Q15084) (Homo sapiens)
# Protocol Details: Competitive isoTOP-ABPP, cell lysates
# Assay type: binding
# Condition Context: 500 μm in-vitro ramos
Form rule: numeric answer, no unit written next to it.

// solved cases for isoTOP-ABPP ratio (reactivity profile), Q15084_C190 follow
Molecule	Assay Result
O=C(CCl)N1CCC(C(O)(c2ccccc2)c2ccccc2)CC1	2.1
O=C(CCl)N1CCOCC1	4.2
N#C/C(=C\c1cc(C(F)(F)F)cc(C(F)(F)F)c1)C(N)=O	1.1

Query string: Look up and state reported isoTOP-ABPP ratio (reactivity profile), Q15084_C190 for CC(Br)C(=O)Nc1cc(C(F)(F)F)cc(C(F)(F)F)c1 (stereo not shown)
Result string: 1.7

Query string: Look up and state reported isoTOP-ABPP ratio (reactivity profile), Q15084_C190 for O=C(CCl)NC12CC3CC(CC(C3)C1)C2
Result string: 2.3

Query string: Look up and state reported isoTOP-ABPP ratio (reactivity profile), Q15084_C190 for CCN(CC)c1ccc(S(N)(=O)=O)cc1NC(=O)CCl
Result string: 2.3

Query string: Look up and state reported isoTOP-ABPP ratio (reactivity profile), Q15084_C190 for COc1ccccc1OCCNC(=O)CCl
Result string: 1.6

Query string: Look up and state reported isoTOP-ABPP ratio (reactivity profile), Q15084_C190 for C=CC(=O)N(Cc1cccnc1)c1ccc(Oc2ccccc2)c(C(F)(F)F)c1
Result string: 1.2

Query string: Look up and state reported isoTOP-ABPP ratio (reactivity profile), Q15084_C190 for CC(C)CCOCCNC(=O)CCl
Result string: 1.1

Query string: Look up and state reported isoTOP-ABPP ratio (reactivity profile), Q15084_C190 for O=C(/C=C/c1ccccc1)Nc1cc(C(F)(F)F)cc(C(F)(F)F)c1
Result string: 0.9
